- Test Target: Regulatory protein BlaR1 (Bacillus licheniformis)
- Assay Comment: Beta-lactamase induction in Bacillus licheniformis
Measured Quantity: Beta-lactamase induction

CC(C)[C@@H](NC(=O)[C@H](CS)NC(=O)CCC[C@@H](N)C(=O)O)C(=O)O = +
CC(C)[C@@H](NC(=O)[C@H](CSSC[C@H](NC(=O)CCC[C@H](N)C(=O)O)C(=O)N[C@@H](C(=O)O)C(C)C)NC(=O)CCC[C@H](N)C(=O)O)C(=O)O = +
CC(C)[C@@H](NC(=O)[C@H](CSSC[C@H](NC(=O)c1cccc(C(N)C(=O)O)c1)C(=O)N[C@@H](C(=O)O)C(C)C)NC(=O)c1cccc(C(N)C(=O)O)c1)C(=O)O (stereo partly drawn) = +

###

- Test Target: Regulatory protein BlaR1 (Bacillus licheniformis) (UniProt P12287)
- Assay Comment: Beta-lactamase induction in Bacillus licheniformis
Measured Quantity: Beta-lactamase induction

Some compounds with known Beta-lactamase induction results, for comparison:
CC(C)[C@@H](NC(=O)[C@H](CO)NC(=O)CCC[C@H](N)C(=O)O)C(=O)O = +
CC(C)[C@@H](NC(=O)[C@H](CSSC[C@H](NC(=O)Cc1cccc(N)c1)C(=O)N[C@@H](C(=O)O)C(C)C)NC(=O)Cc1cccc(N)c1)C(=O)O = +
CC(C)[C@@H](NC(=O)[C@H](CSSC[C@H](NC(=O)C(N)c1cccc(C(=O)O)c1)C(=O)N[C@@H](C(=O)O)C(C)C)NC(=O)C(N)c1cccc(C(=O)O)c1)C(=O)O (stereo not given in full) = +
CC(C)[C@@H](NC(=O)[C@@H](CS)NC(=O)CCC[C@H](N)C(=O)O)C(=O)O = +

Query CC(C)[C@@H](NC(=O)[C@H](CS)NC(=O)CCC[C@H](N)C(=O)O)C(=O)O yields Beta-lactamase induction of +

Query CC(C)[C@@H](NC(=O)[C@H](CSSC[C@H](NC(=O)CCCCCCN)C(=O)N[C@@H](C(=O)O)C(C)C)NC(=O)CCCCCCN)C(=O)O yields Beta-lactamase induction of +

Query CC(C)[C@@H](NC(=O)[C@H](CS)NC(=O)Cc1ccc(O)cc1)C(=O)O yields Beta-lactamase induction of +

###

- Test Target: Regulatory protein BlaR1 (Bacillus licheniformis)
- Sequence (whole entry): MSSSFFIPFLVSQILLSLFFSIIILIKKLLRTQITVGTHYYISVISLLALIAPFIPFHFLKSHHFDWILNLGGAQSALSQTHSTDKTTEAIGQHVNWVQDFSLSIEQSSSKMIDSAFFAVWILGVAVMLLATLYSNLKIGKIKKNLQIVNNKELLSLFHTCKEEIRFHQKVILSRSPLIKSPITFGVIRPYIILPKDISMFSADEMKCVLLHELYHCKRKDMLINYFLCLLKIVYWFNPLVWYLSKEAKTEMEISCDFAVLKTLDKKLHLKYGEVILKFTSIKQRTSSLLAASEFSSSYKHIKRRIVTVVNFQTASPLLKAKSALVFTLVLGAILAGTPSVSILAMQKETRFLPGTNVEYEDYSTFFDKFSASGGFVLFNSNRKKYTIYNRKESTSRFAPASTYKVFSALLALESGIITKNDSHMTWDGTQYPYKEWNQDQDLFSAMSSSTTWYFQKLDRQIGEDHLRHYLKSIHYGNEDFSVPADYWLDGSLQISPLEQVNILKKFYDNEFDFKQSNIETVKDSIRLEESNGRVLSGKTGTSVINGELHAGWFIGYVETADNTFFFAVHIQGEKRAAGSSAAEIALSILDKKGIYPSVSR
- Assay Comment: Beta-lactamase induction in Bacillus licheniformis
Measured Quantity: Beta-lactamase induction

CC(C)[C@@H](NC(=O)[C@H](CSSC[C@H](NC(=O)OCc1ccccc1)C(=O)N[C@@H](C(=O)O)C(C)C)NC(=O)OCc1ccccc1)C(=O)O = +
CC(C)[C@@H](NC(=O)[C@H](C)NC(=O)CCC[C@H](N)C(=O)O)C(=O)O = +
CC(C)[C@@H](NC(=O)[C@H](CSSC[C@H](NC(=O)CCCCCN)C(=O)N[C@@H](C(=O)O)C(C)C)NC(=O)CCCCCN)C(=O)O = +
